Tested on: RXF 393 renal
Test: NCI-60 one-dose screen, 48 h
Conditions: 10 µM unless noted
Procedure: Cells are grown in 96 well plates and exposed to the test compound for 48 hours. Compounds are tested at a single concentration, which is 10^-5 M for most compounds. The reported endpoint is percent growth (GI% or GIPRCNT), where numbers from 0 - 100% represent growth inhibition, and numbers from -100% - 0 represent cell death. For example, a value of 40 represents 60% growth inhibition. A value of 0 means no net growth occurred over the course of the experiment. […]
About 83,000 compounds went through this panel and 20% of them were active in at least one assay; those are over-represented in the sample as a whole. Activity calls are given as the source filed them. The calls were made as follows: active = growth percent below 10; inactive = the rest.
Answer with one of the outcomes given here: TRUE = active, FALSE = inactive

Problem: Given COC(=O)[C@H](Cc1c[nH]c2ccccc12)NC(=O)[C@@H](OC)[C@@H]1Cc2cc3cc(OC4CC(OC5CC(O)C(O)C(C)O5)C(O)C(C)O4)c(C)c(O)c3c(O)c2C(=O)[C@H]1OC1CC(OC2CC(OC3CC(C)(O)C(O)C(C)O3)C(O)C(C)O2)C(O)C(C)O1 (stereo partly specified) , state the outcome it received in this test.
Result: TRUE

Problem: Given O=C([O][Hg][CH2]C1COCC([CH2][Hg][O]C(=O)c2ccccc2)O1)c1ccccc1 (stereo unspecified) , state the outcome it received in this test.
Result: FALSE

Problem: Given CNC(=O)Oc1ccc2c(c1)OCO2 , state the outcome it received in this test.
Result: FALSE

Problem: Given N#CC1(C#N)C(c2ccc(N(CCCl)CCCl)cc2)OC23CCCCC2C1(C#N)C(=N)O3 (stereo unspecified) , state the outcome it received in this test.
Result: FALSE

Problem: Given COc1ccc(/C=C/c2cc(OC)c(OC)c(OC)c2)cc1NC(=O)/C=C/c1ccc(F)cc1 , state the outcome it received in this test.
Result: TRUE

Problem: Given CCOc1ccccc1C(=O)OCC(Cl)(Cl)Cl , state the outcome it received in this test.
Result: FALSE

Problem: Given N#C[Se]CCN1C(=O)c2ccccc2C1=O , state the outcome it received in this test.
Result: TRUE

Problem: Given O=C1OCCC1Br (stereo unspecified) , state the outcome it received in this test.
Result: FALSE

Problem: Given O=C1C(=Cc2cn(Cc3ccccc3)c3ccccc23)C(=O)N(Cc2ccccc2)C(=O)N1Cc1ccccc1 , state the outcome it received in this test.
Result: FALSE

Problem: Given CCOC(=O)N1CC1 , state the outcome it received in this test.
Result: FALSE

Problem: Given CN(C)C(=O)Oc1ccccc1 , state the outcome it received in this test.
Result: FALSE

Problem: Given O=C(N/N=C\c1ccc(N(CCCl)CCCl)cc1)c1cccc([N+](=O)[O-])c1 , state the outcome it received in this test.
Result: FALSE

Problem: Given CCC1CN1CCCCN1CC1CC (stereo unspecified) , state the outcome it received in this test.
Result: FALSE

Problem: Given COc1ccc(/C=C\c2cc(OC)c(OC)c(OC)c2)cc1OCC(=O)Nc1nc2ccc(F)cc2s1 , state the outcome it received in this test.
Result: TRUE

Problem: Given CC(=O)Nc1ccc(NC(=O)c2ccc([As](O)O)cc2)cc1 , state the outcome it received in this test.
Result: FALSE

Problem: Given Oc1ccc2c3c1OC1[C@@H](O)CC[C@@]4(O)[C@@H](C2)N(CC2CCC2)CC[C@]314 (stereo partly specified) , state the outcome it received in this test.
Result: FALSE

Problem: Given COc1ccc(/C=C\c2cc(OC)c(OC)c(OC)c2)c(NS(=O)(=O)c2ccc(F)cc2)c1O , state the outcome it received in this test.
Result: FALSE

Problem: Given CN[C@]1(c2ccccc2Cl)CCCC[C@H]1NCCCN1CCN(C)CC1 , state the outcome it received in this test.
Result: FALSE

Problem: Given COc1ccc(N(CC(=O)NCCC[Te]c2ccccc2)C(=O)CNC(=O)OC(C)(C)C)cc1 , state the outcome it received in this test.
Result: FALSE

Problem: Given CCCCCCCCCCCCCC[P+](CCCCCC)(CCCCCC)CCCCCC , state the outcome it received in this test.
Result: TRUE

Problem: Given Cn1cc(-c2csc(-c3cn(CCCCN4CCCCC4)c4ccccc34)n2)c2cccnc21 , state the outcome it received in this test.
Result: TRUE
